Source listed as ChEMBL document CHEMBL4483862.

Entries and their measured IC90 follow.
system: Plasmodium berghei; assay: Luciferase/luciferin-expressing antifolate-resistant parasites were used to infect a culture of HepG2 cells that were pre-incubated with compounds. Infected hepatocytes emit light due to the luciferase reaction. Assay results are presented as the percent inhibition of light emission compared to control. […]; type: functional; conditions: sporozoite, read-out: LUCIFERASE INFECTION ASSAY - IC90

COCCN1C=C(C(=O)OC)C(c2cccc(O)c2)C(C(=O)OC)=C1    > 9.5 µM

Summary for this compound, `COc1ccc(-c2cc(NC(=O)c3ccc(OCc4c(C)noc4C)cc3)ccc2OC)cc1` : IC90 is > 10 µM

Summary for this compound, `CCCCNC(=O)c1c(NC(=O)c2cccc(F)c2)nc2ccc(C)cn12` : IC90 is 2.84 µM

Summary for this compound, Cc1ccc(C)c(OCC(O)Cn2nc(C)c3ccccc3c2=O)c1C (stereo not drawn) : IC90 is > 10 µM

Summary for this compound, `CCSc1ccccc1C(=O)Nc1ccc(C(=O)OC)cc1` : IC90 is > 10.5 µM

Summary for this compound, `COc1ccc(-c2csc3ncnc(NCC4(N5CCOCC5)CCCCC4)c23)cc1` : IC90 is 9.48 µM

Summary for this compound, `O=C(Nc1ccc(Cl)cc1)Nc1cc(Cl)sc1Cl` : IC90 is 3.79 µM

Summary for this compound, Oc1c(C(c2ccc(F)cc2)N2CCCCC2)cc(Cl)c2cccnc12 (stereo not drawn) : IC90 is > 10 µM

Summary for this compound, `N#Cc1ccc(C#CCOC(=O)c2ccc(Cl)cc2)cc1` : IC90 is > 11.2 µM

Summary for this compound, `C/C(=N\O)c1cnc(-c2ccccc2)s1` : IC90 is 14.8 µM

Summary for this compound, `CC(=O)Nc1ccc(Nc2nc3cc(S(=O)(=O)Nc4cccc(Cl)c4)ccc3o2)cc1` : IC90 is 9.97 µM

Summary for this compound, `Nc1nccnc1C(=O)Nc1nnc(-c2cccc(Br)c2)[nH]1` : IC90 is > 10 µM

Summary for this compound, CC(=O)Nc1ccc(C2NC(=O)NC(c3ccccc3)=C2c2nc3ccccc3s2)cc1 (stereo not drawn) : IC90 is > 10 µM

Summary for this compound, `Cc1cccc(OCCNC(=O)c2cc(S(=O)(=O)N3CCOCC3)ccc2N2CCOCC2)c1` : IC90 is > 10 µM

Summary for this compound, CC1=C(c2nc(-c3ccc(C)cc3)no2)C(c2ccco2)NC(=S)N1 (stereo not drawn) : IC90 is > 10 µM
